Each recorded value in this set is attributed to the supplement of paper PMC3334620.

# Tested On: Nrg2 (UniProt P38082)
# Sequence: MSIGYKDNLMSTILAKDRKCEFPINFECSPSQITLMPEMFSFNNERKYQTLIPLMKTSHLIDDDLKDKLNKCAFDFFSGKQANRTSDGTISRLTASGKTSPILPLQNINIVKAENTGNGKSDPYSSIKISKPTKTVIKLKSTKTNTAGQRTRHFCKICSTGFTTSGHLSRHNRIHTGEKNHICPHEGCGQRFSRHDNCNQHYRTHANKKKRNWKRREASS
# Experiment: PBM E-score (8-mer binding enrichment) (E-score (-0.5 to 0.5)); higher = stronger / more preferred TF binding
# Conditions Used: protein concentration: 100 nM; construct: GST-full length
Whole data set: some 33,000 sequences, median “E-score (-0.5 to 0.5)” near -8e-05, cut for the highest 2% near 0.23. This is one part of a sample in which the highest values are shown more often than they occur.
So basically every entry gets a class from its PBM E-score, ranges being bucket 1 (below -0.07), bucket 2 (-0.07 to below 0.09), bucket 3 (0.09 or more)

Bin this entry: AAGGCGGG
bucket 1

Bin this entry: CAGCAGCC
bucket 2

Bin this entry: ATATCAAG
bucket 3

Bin this entry: CCTTATCC
bucket 1

Bin this entry: TCTACGCA
bucket 2

Others:
Bin this entry: AATTCGCT
bucket 3

###

# Tested On: Nrg2 (UniProt P38082)
# Sequence: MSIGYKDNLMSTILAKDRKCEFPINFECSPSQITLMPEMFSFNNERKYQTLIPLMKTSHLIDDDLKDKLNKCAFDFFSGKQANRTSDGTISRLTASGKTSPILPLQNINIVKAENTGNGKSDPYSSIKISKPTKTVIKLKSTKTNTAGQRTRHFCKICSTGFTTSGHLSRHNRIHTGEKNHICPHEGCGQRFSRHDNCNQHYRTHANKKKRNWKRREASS
# Experiment: PBM E-score (8-mer binding enrichment) (E-score (-0.5 to 0.5)); higher = stronger / more preferred TF binding
# Conditions Used: protein concentration: 100 nM; construct: GST-full length
Over roughly 33,000 sequences, “E-score (-0.5 to 0.5)” has its median near -8e-05; the highest 2% begin near 0.23. The list comes from a sample in which the highest values are over-represented; it also holds close analogues and randomly drawn sequences.
Readout Label: PBM E-score
Form field (numeric): enter value without unit.

Entry AGGGGCCC : reported PBM E-score = ?
0.276

Entry ATAGTAGC : reported PBM E-score = ?
0.25

Entry CAAGGGTC : reported PBM E-score = ?
0.376

Entry ACGAACGC : reported PBM E-score = ?
0.267

Entry CCCTTACG : reported PBM E-score = ?
-0.128

Entry ACGCGGTA : reported PBM E-score = ?
-0.152

Entry ATTATGAC : reported PBM E-score = ?
-0.0447

Entry ATAGTAGG : reported PBM E-score = ?
0.0354

Entry CTCGCTTA : reported PBM E-score = ?
0.132

Entry GAACAAAA : reported PBM E-score = ?
0.195

Others:
Entry AGATTGCG : reported PBM E-score = ?
0.00885

Entry AGCTAGCA : reported PBM E-score = ?
-0.191

Entry ACGAACCC : reported PBM E-score = ?
-0.00702

Entry AAGGGCCG : reported PBM E-score = ?
-0.0822

Entry CAAGGGTG : reported PBM E-score = ?
0.0522

###

# Tested On: Nrg2 (UniProt P38082)
# Sequence: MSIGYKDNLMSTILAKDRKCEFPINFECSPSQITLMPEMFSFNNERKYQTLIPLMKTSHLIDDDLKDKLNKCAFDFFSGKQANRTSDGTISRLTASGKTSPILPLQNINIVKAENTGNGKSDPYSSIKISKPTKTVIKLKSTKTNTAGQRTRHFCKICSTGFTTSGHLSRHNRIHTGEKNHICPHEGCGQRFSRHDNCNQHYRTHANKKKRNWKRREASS
# Experiment: PBM E-score (8-mer binding enrichment) (E-score (-0.5 to 0.5)); higher = stronger / more preferred TF binding
# Conditions Used: protein concentration: 100 nM; construct: GST-full length
Over roughly 33,000 sequences, “E-score (-0.5 to 0.5)” has its median near -8e-05; the highest 2% begin near 0.23. The sample holds the highest values, similar sequences and a random draw of the others, so the mix is not that of the screen.
Readout Label: PBM E-score
Form field (numeric): enter value without unit.

Entry TCCAGCAA : reported PBM E-score = ?
-0.151

Entry TTAACAAA : reported PBM E-score = ?
0.094

Entry GTCACGCA : reported PBM E-score = ?
0.0867

Others:
Entry AGACCCAC : reported PBM E-score = ?
0.0598

Entry CGGGGGAC : reported PBM E-score = ?
-0.242

Entry ACCAGCAA : reported PBM E-score = ?
0.245

###

// reported PBM E-score for each item listed
# Tested On: Nrg2 (UniProt P38082)
# Sequence: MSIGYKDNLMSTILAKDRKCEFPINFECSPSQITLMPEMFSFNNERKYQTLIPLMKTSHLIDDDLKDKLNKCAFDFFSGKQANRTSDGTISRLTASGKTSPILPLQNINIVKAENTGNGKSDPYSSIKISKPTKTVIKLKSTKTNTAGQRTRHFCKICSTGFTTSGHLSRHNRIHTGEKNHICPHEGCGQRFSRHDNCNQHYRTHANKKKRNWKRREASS
# Experiment: PBM E-score (8-mer binding enrichment) (E-score (-0.5 to 0.5)); higher = stronger / more preferred TF binding
# Conditions Used: protein concentration: 100 nM; construct: GST-full length
In all, about 33,000 sequences were measured (“E-score (-0.5 to 0.5)”: median about -8e-05, highest 2% from about 0.23 on). The sample as a whole holds a higher share of the highest values than the screen did.
Form field (numeric): enter value without unit.

Entry CATCAGGG : reported PBM E-score = ?
0.229

Entry ACTCAGGC : reported PBM E-score = ?
0.00622

Entry CAAAACCA : reported PBM E-score = ?
0.249

Entry CGGCATTA : reported PBM E-score = ?
0.0976

Entry ATTCAGGG : reported PBM E-score = ?
0.367

Others:
Entry ATACAACG : reported PBM E-score = ?
0.0553

Entry CGCTACAG : reported PBM E-score = ?
-0.103

Entry AATCATAT : reported PBM E-score = ?
0.0761

Entry AATTTGAC : reported PBM E-score = ?
0.127

Entry ACGACCAA : reported PBM E-score = ?
-0.12

Entry ATACAATA : reported PBM E-score = ?
0.239

Entry AGCAAGAA : reported PBM E-score = ?
0.0497

Entry AATGAGGG : reported PBM E-score = ?
-0.00097

Entry ATTTTGAG : reported PBM E-score = ?
0.0761

Entry GAGACTAA : reported PBM E-score = ?
-0.027

Entry CACAAGAA : reported PBM E-score = ?
0.245

Entry GGATCTGA : reported PBM E-score = ?
-0.0992

Entry ATACAATC : reported PBM E-score = ?
-0.0431

Entry AAACAATT : reported PBM E-score = ?
0.137

Entry CGGTTGAA : reported PBM E-score = ?
0.101

Entry AACTCGGC : reported PBM E-score = ?
0.245

Entry TAGACCAA : reported PBM E-score = ?
0.121

Entry CCTCTCCA : reported PBM E-score = ?
-0.343

Entry AACTCGGT : reported PBM E-score = ?
-0.00163

Entry AATCATAG : reported PBM E-score = ?
0.235

Entry AGCAGACT : reported PBM E-score = ?
-0.138

Entry ACTCAGGA : reported PBM E-score = ?
-0.067

Entry TAACAATA : reported PBM E-score = ?
0.132

Entry GCGGCCCA : reported PBM E-score = ?
-0.0651

Entry AAAGAGGC : reported PBM E-score = ?
-0.228

Entry AATCAGGG : reported PBM E-score = ?
0.0765

Entry ATCCAGGG : reported PBM E-score = ?
0.349

###

# Tested On: Nrg2 (UniProt P38082)
# Sequence: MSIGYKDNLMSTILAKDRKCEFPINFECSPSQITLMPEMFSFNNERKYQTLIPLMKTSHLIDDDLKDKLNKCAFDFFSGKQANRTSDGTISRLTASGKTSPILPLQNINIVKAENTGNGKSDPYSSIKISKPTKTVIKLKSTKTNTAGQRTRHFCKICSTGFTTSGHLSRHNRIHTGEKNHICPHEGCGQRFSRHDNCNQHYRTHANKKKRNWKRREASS
# Experiment: PBM E-score (8-mer binding enrichment) (E-score (-0.5 to 0.5)); higher = stronger / more preferred TF binding
# Conditions Used: protein concentration: 100 nM; construct: GST-full length
Over roughly 33,000 sequences, “E-score (-0.5 to 0.5)” has its median near -8e-05; the highest 2% begin near 0.23. For the sample, the highest values were picked, then their nearest neighbours and some sequences at random.
Readout Label: PBM E-score
Form field (numeric): enter value without unit.

Lab request: please report PBM E-score under test system Nrg2 (UniProt P38082) for GACATACA
0.246

Lab request: please report PBM E-score under test system Nrg2 (UniProt P38082) for GCTCGAGA
-0.131

Lab request: please report PBM E-score under test system Nrg2 (UniProt P38082) for ACTCGAGG
0.162

Lab request: please report PBM E-score under test system Nrg2 (UniProt P38082) for CCTCGAGA
0.156

Others:
Lab request: please report PBM E-score under test system Nrg2 (UniProt P38082) for GATACATC
0.134

Lab request: please report PBM E-score under test system Nrg2 (UniProt P38082) for CACATACA
-0.0126

Lab request: please report PBM E-score under test system Nrg2 (UniProt P38082) for CCTCGAGG
0.242

Lab request: please report PBM E-score under test system Nrg2 (UniProt P38082) for GCTCGACC
-0.0125

Lab request: please report PBM E-score under test system Nrg2 (UniProt P38082) for TACATACA
0.199
